These entries and their values trace back to paper PMC12298624.

Assignment: determine reported IC50 at 70 h for the given compounds.
- MEASUREMENT DESCRIPTION: Resazurin-based in vitro cytotoxicity with L-6 cells
- Format: cell-based, rat
- CONDITION NOTES: rat
Give bare numbers, in µM.

The following compounds have reported results that may help.
Entry "CC(=O)Nc1ccc(Oc2c(C(=O)Nc3ccccc3N3CCNCC3)cccc2C(F)(F)F)cc1" , IC50 at 70 h reported as 13.2

Entry "O=C(Nc1ccc(N2CCNCC2)cc1)c1ccccc1Oc1ccc(F)cc1" , IC50 at 70 h reported as 25.4

Entry "CN(C)c1ccccc1NC(=O)c1cccc(C(F)(F)F)c1Oc1ccc(F)cc1" , IC50 at 70 h reported as 25.1

Now for the compound whose IC50 at 70 h we want.
Entry "CN1CCN(c2ccccc2NC(=O)c2cccc(C(F)(F)F)c2Oc2ccc(F)cc2)CC1" , IC50 at 70 h reported as 120

###

- System: P. falciparum NF54
- MEASUREMENT DESCRIPTION: In vitro microplate assay against P. falciparum NF54 (3H-hypoxanthine incorporation)
- Format: cell-based, Plasmodium falciparum
- CONDITION NOTES: Plasmodium falciparum, NF54, chloroquine-sensitive strain NF54, erythrocytic stages; read-out: P.f.NF54 IC50
ASSAY ENDPOINT: IC50 (nM)
Numbers only, in nM.

The following molecules have reported results that may help.
Entry "Nc1cccc(C(=O)Nc2ccc(N3CCNCC3)cc2)c1Oc1ccc(F)cc1" , IC50 reported as 7000

Entry "O=C(Nc1ccc(N2CCNCC2)cc1)c1cccc(C(F)(F)F)c1Sc1ccc(F)cc1" , IC50 reported as 1660

Entry "O=C(Nc1ccc(N2CCNCC2)cc1)c1ccccc1Oc1ccccc1" , IC50 reported as 2330

Now for the molecule whose IC50 we want.
Entry "O=C(Nc1ccc(N2CCNCC2)cc1)c1cccc(C(F)(F)F)c1Oc1ccc(F)cc1" , IC50 reported as 3150

###

Assignment: determine reported IC50 at 48 h for the given molecules.
- MEASUREMENT DESCRIPTION: Resazurin-based in vitro cytotoxicity with HepG2 cells
- Format: cell-based, human
- CONDITION NOTES: HepG2 cells; human hepatocarcinoma cells, 48 h
Give bare numbers, in µM.

Entry O=C(Nc1ccc(N2CCNCC2)cc1)c1ccccc1Oc1ccc(F)cc1 [Compound 59] , IC50 at 48 h reported as 38.9

Now for the molecule whose IC50 at 48 h we want.
Entry O=C(Nc1ccc(N2CCNCC2)cc1)c1cccc(F)c1Oc1ccc(F)cc1 [Compound 60] , IC50 at 48 h reported as 26.2

###

Assignment: determine reported Papp at 5 h, 200 µM for the given compounds.
- MEASUREMENT DESCRIPTION: Parallel artificial membrane permeability assay (PAMPA)
- CONDITION NOTES: PAMPA, pH 7.4, Pe, PBS pH 7.4, 200 µM, 5 h, room temperature
Give bare numbers, in ×10⁻⁶ cm/s.

The following compounds have reported results that may help.
Entry O=C(Nc1ccccc1N1CCNCC1)c1cccc(C(F)(F)F)c1Sc1ccc(F)cc1 [Compound 55] , Papp at 5 h, 200 µM reported as 4.41

Entry CC(=O)Nc1ccc(Oc2c(C(=O)Nc3ccccc3N3CCNCC3)cccc2C(F)(F)F)cc1 [Compound 54] , Papp at 5 h, 200 µM reported as 0.26

Entry O=C(Nc1ccccc1N1CCNCC1)c1cccc(C(F)(F)F)c1Oc1ccc(F)cc1 [Compound 53] , Papp at 5 h, 200 µM reported as 6.39

Entry O=C(Nc1ccc(N2CCNCC2)cc1)c1ccccc1Oc1ccc(F)cc1 [Compound 59] , Papp at 5 h, 200 µM reported as 14.2

Entry O=C(Nc1ccc(N2CCNCC2)cc1)c1cccc(C(F)(F)F)c1Oc1ccccc1 [Compound 58] , Papp at 5 h, 200 µM reported as 4.98

Now for the compound whose Papp at 5 h, 200 µM we want.
Entry O=C(Nc1ccc(N2CCNCC2)cc1)c1cccc(F)c1Oc1ccc(F)cc1 [Compound 60] , Papp at 5 h, 200 µM reported as 11.7
